Values compiled from ChEMBL document CHEMBL1201862.

tested on: CAKI-1; test: NCI tumour cell line growth inhibition, 48 h
The source made the active and inactive calls. Cut-off read from the data, not from the text of the source: active = GI50 up to about 1.1 µM and inactive = higher.
Measure name: GI50

• C=CC[C@H](O)[C@@](NC(=O)OCc1ccccc1)(Sc1ccc(C)cc1)C(F)(F)F = 24.7 µM (inactive)
• CCN(CC)C(c1ccc(N(C)C)cc1)C(c1ccc(N(C)C)cc1)N(CC)CC (stereo not drawn) = 25.9 µM (inactive)
• NC(=O)c1c([N+](=O)[O-])cc(C(F)(F)F)cc1[N+](=O)[O-] = > 100 µM (inactive)

====

GI50 for assorted compounds
test system: M14; assay: NCI tumour cell line growth inhibition, 48 h
Activity calls are given as the source filed them. Cut-off read from the data, not from the text of the source: active = GI50 up to about 1.1 µM and inactive = higher.
Measure name: GI50

* NC(N)=NCCC(O)(P(=O)(O)O)P(=O)(O)O | > 100 µM (inactive)
* O=C(Nc1nc2ncn(CCNCc3ccccc3)c2c(=O)[nH]1)c1ccccc1 | > 100 µM (inactive)
* O=C1c2cccc([N+](=O)[O-])c2C(=O)c2nccnc21 | 1.57 µM (inactive)
* Cc1ccc([N+](=O)[O-])c2c(NCCC[N+](C)(C)[O-])c3ccccc3nc12 | 2.34 µM (inactive)
